Reported apparent KD of MS2 coat protein is given for each of the following sequences.
# Test system: MS2 coat protein
# assay.details: apparent KD of MS2 coat protein; designed switch direction (-1 OFF switch, 1 ON switch): -1; higher = weaker reporter binding
# experimental.parameters: input ligand: FMN 200 uM
experimental.endpoint: apparent KD of MS2 coat protein (nM)

AUCAGCUCGUGAGGAUAUACAUGCGUGCUUCGGCACGUAUGAUAGAUCACAUGAGGAUCACCCAUGUAGAAGGCACGAGCUGAU [ENG2/4-A3] (Eterna round: R96, puzzle: Exclusion NG 2) : 15.1
UUCACGUCAGGAUAUCCAAAGUUCCGAAAUAACGGUACUUUGGAGAAGGGACAUGAGGAUCACCCAUGUCCUCG [LRO-Excl4-17-Nando 22 Mod] (Eterna round: R97, puzzle: Exclusion 4) : 40.3
AAGAUGUGAGGAUAUCACGAGAGCGUCACACGGACGCCCUCUGAGAAGGCACAUGAGGAUCACCCAUGUCCAAA [EX4 A.22] (Eterna round: R97, puzzle: Exclusion 4) : 387
GUCUUACAUGAGGAUCACCCAUGUGAGGAUAUGGAUUCGCUGGCCGUAGCCAGUGGAUCCAGAAGGCGCAUGAU [JL-ex1-4.04] (Eterna round: R97, puzzle: Exclusion 1) : 50.9
AAAUUAGCAAGUAGGUCCGACAUGAGGAUCACCCAUGUAAUCUAAAAUUACGCUGCACGAAAGUGCGCUCGUCUUAG [Sensor-V1 #12] (Eterna round: R97, puzzle: Sensor, turn-off variant 1) : 439
ACUCAGUGAGGAUAUCGCCAGAGAACCGUAACGGUCUCUGAUGAGAAGGCACAUGAGGAUCACCCAUGUAAGCA [EX4 C.3] (Eterna round: R97, puzzle: Exclusion 4) : 278
UAUUAGCAAGCGAGAUCCCACAUGAGGAUCACCCAUGUAAAGCAUCCAGAAUUACUGGGUGCAAAAGCUCGUCUUAU [Winner reversed engineered 6] (Eterna round: R97, puzzle: Sensor, turn-off variant 1) : 29.4
GCGAUGUGAGGAUAUACAAGGUGUGAGAGUGCUUGAACGUAACAUGAGGAUCACCCAUGUAGAAGGUAUGUGAU [Eternabot (L1) Solution 29] (Eterna round: R97, puzzle: Exclusion 2) : 109
UUAUAGUAUGUAGGAUAUCGGUCAGUUUCUGAUCGAGAAGGACAUGAGGAUCACCCAUGUAAGGCUACCGGUUUCUGGUGGCCG [JL ENG1 3.53] (Eterna round: R96, puzzle: Exclusion NG 1) : 122
AUAAAGUGAGGAUAUAUAAGACACGGUGAUACACCGUGAAAAUAGAAGGUACAUGAGGAUCACCCAUGUUGGGC [Mod of Anonveat 19 - Jieux - Exclusion 4] (Eterna round: R97, puzzle: Exclusion 4) : 50.2
